Tested on: LoVo
protocolNotes: cells
particulars: Homo sapiens, LoVo, 48 h, read-out: LOVO GI50
Exercise: for every item that follows, state its recorded GI50.
Answers are plain numbers, in nM.

Some entries whose results are on file:
CCCCCCCC(=O)Oc1c(C)c2c(c3c1[C@H]1SC[C@]4(NCCc5cc(O)c(OC)cc54)C(=O)OC[C@@H]3N3C1[C@@H]1N[C@@H](Cc4cc(C)c(OC)c(O)c41)[C@@H]3C#N)OCO2 (stereo partly drawn) [compound 52]: 9.17
COc1c(C)cc2c(c1O)[C@H]1N[C@@H](C2)[C@H](O)N2C1[C@@H]1SC[C@]3(NCCc4c3[nH]c3ccc(O)cc43)C(=O)OC[C@H]2c2c3c(c(C)c(OC(C)=O)c21)OCO3 (stereo partly drawn) [compound 65]: 6.78

Read the next record carefully.
stdin: Any idea what GI50 was measured for COc1c(C)cc2c(c1O)[C@H]1N[C@@H](C2)[C@H](C#N)N2C1[C@@H]1SC[C@]3(NCCc4c3[nH]c3ccc(O)cc43)C(=O)OC[C@H]2c2c3c(c(C)c(OC(C)=O)c21)OCO3 (stereo partly drawn) [compound 61] ?
stdout: 17.1

* * *

Tested on: K-562
protocolNotes: Inhibition of cells growth by colorimetric assay (SRB)
particulars: read-out: LC50 K562; K562; SRB, 48 hours exposure
Exercise: for every item that follows, state its recorded CC50.
Numbers only, in nM.

C=CCN1C2Cc3cc(C)c(OC)c(O)c3C1C1C3SCC(NC(=O)CC)C(=O)OCC(c4c5c(c(C)c(OC(C)=O)c43)OCO5)N1C2C#N (centres unmarked): 206

Read the next record carefully.
stdin: Quick check: CC50 on K-562, item C=CCN1C2Cc3cc(C)c(OC)c(O)c3C1C1C3SCC(NC(C)=O)C(=O)OCC(c4c5c(c(C)c(OC(C)=O)c43)OCO5)N1C2C#N (centres unmarked) ?
stdout: 93.8

* * *

Tested on: LoVo-Dox
protocolNotes: Inhibition of cells growth by colorimetric assay (SRB)
particulars: Homo sapiens, 48 h, read-out: TGI LOVO-DOX
Experimental: This form of the assay employs 96 well cell culture microplates of 9 mm diameter (Faircloth, 1988; Mosmann, 1983). Most of the cell lines are obtained from American Type Culture Collection (ATCC) derived from different human cancer types. […] The values for mean +/− SD of data from triplicate wells are calculated. Some parameters for cellular responses can be calculated: GI=growth inhibition, TGI=total growth inhibition (cytostatic effect) and LC=cell killing (cytotoxic effect).
Exercise: for every item that follows, state its recorded IC (TGI).
Answers are plain numbers, in µM.

Some entries whose results are on file:
COC1=C(C)C(=O)C2=C(C1=O)[C@@H]1C3[C@@H]4SC[C@]5(NCCc6c5[nH]c5ccccc65)C(=O)OC[C@@H](c5c6c(c(C)c(OC(C)=O)c54)OCO6)N3[C@@H](C#N)[C@H](C2)N1C (stereo partly shown) [compound 23]: 7.46
CCCCCCCCCCCCCCCC(=O)NC1CS[C@@H]2c3c(OC(C)=O)c(C)c4c(c3[C@H](COC1=O)N1C2[C@@H]2N[C@@H](Cc3cc(C)c(OC)c(O)c32)[C@@H]1C#N)OCO4 (stereo partly shown) [compound 32]: 2.48

Below are some molecules; for each one, tell me its IC (TGI).
1. C=CCOc1c(C)c2c(c3c1CC1[C@H]4c5c(cc(C)c(OC)c5O)C[C@@H]([C@H](C#N)N1[C@H]3CN)N4C)OCO2 (stereo partly shown) [compound 1]
2. C=CCN1[C@@H]2c3c(cc(C)c(OC)c3O)C[C@H]1[C@H](C#N)N1C2[C@@H]2SCC(N)C(=O)OC[C@H]1c1c3c(c(C)c(OC(C)=O)c12)OCO3 (stereo partly shown) [compound 12]
3. COc1c(C)cc2c(c1O)[C@@H]1C3[C@@H]4SC[C@]5(NCCc6c5[nH]c5ccccc65)C(=O)OC[C@@H](c5c6c(c(C)c(OC(C)=O)c54)OCO6)N3[C@@H](C#N)[C@H](C2)N1C (stereo partly shown) [compound 22]
4. C=CCN1[C@@H]2c3c(cc(C)c(OC)c3O)C[C@H]1[C@H](C#N)N1C2[C@@H]2SCC(NC(=O)C(F)(F)F)C(=O)OC[C@H]1c1c3c(c(C)c(OC(C)=O)c12)OCO3 (stereo partly shown) [compound 25]
5. COc1c(C)cc2c(c1O)[C@H]1N[C@@H](C2)[C@H](C#N)N2C1[C@@H]1SCC(NC(=O)C(F)(F)F)C(=O)OC[C@H]2c2c3c(c(C)c(OC(C)=O)c21)OCO3 (stereo partly shown) [compound 31]

stdout:
1. 19.2
2. 0.971
3. 0.524
4. 3.77
5. 1.48

These data points were gathered from patent US7767659B2.
